Target System: HLA-A*03:01 (Homo sapiens)
Assay Explanation: MHC binding assay (UV-ligand exchange, β2m ELISA)
Measurement Context: binding to HLA-A*03:01, UV-ligand exchange, β2m ELISA
Observable: Peptide exchange (MHC class I binding score, peptide exchange yield)

Worked cases, Peptide exchange (MHC class I binding score, peptide exchange yield) given:
>  <Substance>
160 (RLLPGKVVWK; listed as Homo sapiens) [compound 160]

>  <Test Result>
++++ (>75% = ++++)

$$$$
>  <Substance>
199 (IVFPDVISK; listed as Homo sapiens) [compound 199]

>  <Test Result>
++++ (>75% = ++++)

$$$$
>  <Substance>
19 (ALAAKLEVK; listed as Homo sapiens) [compound 19]

>  <Test Result>
++++ (>75% = ++++)

$$$$
>  <Substance>
252 (AVYNYPEGAAY; listed as Homo sapiens) [compound 252]

>  <Test Result>
++++ (>75% = ++++)

$$$$
>  <Substance>
88 (GTHVWVGLYK; listed as Homo sapiens) [compound 88]

>  <Test Result>
++++ (>75% = ++++)

$$$$
>  <Substance>
107 (ILNLNKMVK; listed as Homo sapiens) [compound 107]

>  <Test Result>
+++ (>50 = +++)

$$$$

Exercise: What Peptide exchange (MHC class I binding score, peptide exchange yield) value was documented for this substance, 218 (KAFNQSSIFTK; listed as Homo sapiens) [compound 218] ?
Key: +++ (>50 = +++)

Exercise: What Peptide exchange (MHC class I binding score, peptide exchange yield) value was documented for this substance, 81 (HLFLPFSYK; listed as Homo sapiens) [compound 81] ?
Key: ++++ (>75% = ++++)

====

Target System: HLA-A*03:01 (Homo sapiens)
Assay Explanation: MHC binding assay (UV-ligand exchange, β2m ELISA)
Measurement Context: binding to HLA-A*03:01, UV-ligand exchange, β2m ELISA
Observable: Peptide exchange (MHC class I binding score, peptide exchange yield)

Worked cases, Peptide exchange (MHC class I binding score, peptide exchange yield) given:
>  <Substance>
204 (VAFIPLSNK; listed as Homo sapiens) [compound 204]

>  <Test Result>
++++ (>75% = ++++)

$$$$
>  <Substance>
10 (KARDLRTPK; listed as Homo sapiens) [compound 10]

>  <Test Result>
+++ (>50 = +++)

$$$$
>  <Substance>
87 (RLASVGLDAK; listed as Homo sapiens) [compound 87]

>  <Test Result>
++++ (>75% = ++++)

$$$$
>  <Substance>
256 (AVIGALLAVGATK; listed as Homo sapiens) [compound 256]

>  <Test Result>
+++ (>50 = +++)

$$$$

Exercise: Form entry - test system: HLA-A*03:01 (Homo sapiens); read-out: Peptide exchange (MHC class I binding score, peptide exchange yield); substance: 143 (KTLGKIAEK; listed as Homo sapiens) [compound 143]
Key: ++++ (>75% = ++++)

Exercise: Form entry - test system: HLA-A*03:01 (Homo sapiens); read-out: Peptide exchange (MHC class I binding score, peptide exchange yield); substance: 78 (KTGTFVLYKS; listed as Homo sapiens) [compound 78]
Key: +++ (>50 = +++)

Exercise: Form entry - test system: HLA-A*03:01 (Homo sapiens); read-out: Peptide exchange (MHC class I binding score, peptide exchange yield); substance: 181 (RVAEEILIK; listed as Homo sapiens) [compound 181]
Key: +++ (>50 = +++)

Exercise: Form entry - test system: HLA-A*03:01 (Homo sapiens); read-out: Peptide exchange (MHC class I binding score, peptide exchange yield); substance: 51 (VTADGALAMEK; listed as Homo sapiens) [compound 51]
Key: +++ (>50 = +++)
